- STUDY_SYSTEM: IgE of patient serum 1
- TEST_DETAILS: ELISA inhibition, serum 1 pre-incubated with 1.25 µg/ml inhibitor; competitor: wt Bet v 1 adsorbed on wells
METRIC: % inhibition of Bet v 1-IgE binding (%)

BINDER	METRIC	VALUE_UNIT	OBSERVED_MEASUREMENT
mutant Bet v 1-Mal d 1 hybrid molecule (SEQ ID NO: 4) (protein) HHHHHHGVFNYETETTSVIPAARLFKAFILDGDNLFPKVAPQAISSVENIEGNGGPGTIAKISFPEGFPFKYVKDRVDEVDHTNFKYNYSVIEGGPIGDTLEKISNEIKIVATPDGGSILAINNKYHTAGDHEVKAEQIKASKEMGETLLRAVESYLLAHSDAYNEFGVYTFENEFTSEIPPSRLFKAFVLAADNLIPKIAPQAIKQAEILEGDGGPGTIKKITFGEGSQYGYVKHKIDSVDEAAYSYAYTLIEGDALTDTIEKVSYETKLVASGSGSIIKSISHYHTKGDVEIKEEHVKAGKEKAHGLFKLIESYLKGHPDAYN	% inhibition of Bet v 1-IgE binding	%	90.2
